- SUBJECT OF TEST: Aβ42 (Homo sapiens, UniProt P05067)
- Sequence (P05067 672-713): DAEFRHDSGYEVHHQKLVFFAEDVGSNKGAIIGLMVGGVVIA
- ASSAY INFO: Th-T (thioflavin-T) assay of Aβ42 aggregation
- Type: biochemical
- CONDITION SET: compound at 50; reading M56 of time course
READOUT KIND: Th-T fluorescence, mean of three wells
Answers are plain numbers.

Previously resolved entries follow.
C=C1CCC2C(C)(CCC=C(C)C)C(O)CCC2(C)C1Cc1c(OC)oc(C)c(C(=O)OC)c1=O (centres unmarked) = 4.625
C=C1CCC2C(C)(CCC=C(C)C)C(O)CCC2(C)C1Cc1c(OC)oc(CO)c(C)c1=O (centres unmarked) = 1.467
C=C1CCC2C(C)(CCC=C(C)C)C(O)CCC2(C)C1Cc1c(OC)oc(CO)c(C(=O)OC)c1=O (centres unmarked) = 0.4654

Could I get Th-T fluorescence, mean of three wells for every one of these entries?
1. C=C1CC[C@@H]2[C@](C)(CC[C@H]3O[C@H](C=C(C)C)C[C@@]23C)[C@@H]1Cc1c(OC)oc(CO)c(C(=O)OC)c1=O
2. C=C1CC[C@@H]2[C@](C)(CC[C@H]3O[C@H](C=C(C)C)C[C@@]23C)[C@@H]1Cc1c(OC)oc(CO)c(C)c1=O

0.2209
2.129

----------
Provide the recorded Th-T assay signal, mean of three wells (Fig. 7a) for the entries that follow.
- SUBJECT OF TEST: Aβ42 (Homo sapiens, UniProt P05067)
- ASSAY INFO: Th-T (thioflavin-T) assay of Aβ42 aggregation
- Type: biochemical
- CONDITION SET: column suffix _20; reading M17
One number for each entry.

Example molecules with recorded Th-T assay signal, mean of three wells (Fig. 7a):
C=C1CCC2C(C)(CCC=C(C)C)C(O)CCC2(C)C1Cc1c(OC)oc(C)c(C(=O)OC)c1=O (centres unmarked) [Compound 14] = 0.8453
C=C1CCC2C(C)(CCC=C(C)C)C(O)CCC2(C)C1Cc1c(OC)oc(CO)c(C(=O)OC)c1=O (centres unmarked) [Compound 13] = 0.1852
C=C1CC[C@@H]2[C@](C)(CC[C@H]3O[C@H](C=C(C)C)C[C@@]23C)[C@@H]1Cc1c(OC)oc(CO)c(C)c1=O [Compound 20] = 2.993
C=C1CC[C@@H]2[C@](C)(CC[C@H]3O[C@H](C=C(C)C)C[C@@]23C)[C@@H]1Cc1c(OC)oc(CO)c(C(=O)OC)c1=O [Compound 21] = 0.1967

For the next question, use this molecule.
What does the record list as Th-T assay signal, mean of three wells (Fig. 7a) for C=C1CCC2C(C)(CCC=C(C)C)C(O)CCC2(C)C1Cc1c(OC)oc(CO)c(C)c1=O (centres unmarked) [Compound 12] ?
2.585

----------
Please respond with reported Th-T fluorescence, mean of three wells (Fig. 7a) for every item in the list.
- SUBJECT OF TEST: Aβ42 (Homo sapiens, UniProt P05067)
- ASSAY INFO: Th-T (thioflavin-T) assay of Aβ42 aggregation
- Assay type: biochemical
- CONDITION SET: reading M109; compound at 50 (head suffix _50)

// worked examples, Th-T fluorescence, mean of three wells (Fig. 7a) included
C=C1CC[C@@H]2[C@](C)(CC[C@H]3O[C@H](C=C(C)C)C[C@@]23C)[C@@H]1Cc1c(OC)oc(CO)c(C(=O)OC)c1=O = 0.4841
C=C1CC[C@@H]2[C@](C)(CC[C@H]3O[C@H](C=C(C)C)C[C@@]23C)[C@@H]1Cc1c(OC)oc(CO)c(C)c1=O = 2.11

Each molecule below has a reported value. Please supply its Th-T fluorescence, mean of three wells (Fig. 7a).
1. C=C1CCC2C(C)(CCC=C(C)C)C(O)CCC2(C)C1Cc1c(OC)oc(CO)c(C(=O)OC)c1=O (centres unmarked)
2. C=C1CCC2C(C)(CCC=C(C)C)C(O)CCC2(C)C1Cc1c(OC)oc(CO)c(C)c1=O (centres unmarked)
3. C=C1CCC2C(C)(CCC=C(C)C)C(O)CCC2(C)C1Cc1c(OC)oc(C)c(C(=O)OC)c1=O (centres unmarked)

1. 0.476
2. 1.43
3. 1.221
